# protocol: Selectivity ratio of IC50 for human MDA-MB-231 cells to MIC for Candida albicans CPCC400616
# Type: toxicity
quantity-name: selectivity ratio
Number, no unit, nothing else.

[Q] Please list selectivity ratio recorded for the compound Fc1ccc([Se]C(Cn2ccnc2)c2ccc(F)cc2F)cc1 (stereo unspecified)
[A] 38

----------
The reader will find reported MIC values listed item by item below.
# Test system: Cryptococcus neoformans
# protocol: Antifungal activity against Cryptococcus neoformans CMGCC2.3161 measured after 72 hrs by broth microdilution assay
# Format: functional
Use µg/mL as the unit, but write only the number.

Below, 4 compounds whose answers are already recorded.
{"compound": "Cc1ccccc1[Se]C(Cn1ccnc1)c1ccc(F)cc1F (stereo not given)", "u": "µg/mL", "MIC": 0.5}
{"compound": "Fc1ccc(C(Cn2ccnc2)[Se]c2ccccc2)c(F)c1 (stereo not given)", "u": "µg/mL", "MIC": 0.5}
{"compound": "Fc1ccc(C(Cn2cncn2)[Se]Cc2ccc(Cl)cc2)c(F)c1 (stereo not given)", "u": "µg/mL", "MIC": 4}
{"compound": "CCc1ccc([Se]C(Cn2ccnc2)c2ccc(F)cc2F)cc1 (stereo not given)", "u": "µg/mL", "MIC": 0.03}

Consider the record given below.
[Q] Retrieve MIC measured for Cc1ccc([Se]C(Cn2ccnc2)c2ccc(Cl)cc2Cl)cc1 (stereo not given) and print it.
[A] 0.13

----------
# protocol: Selectivity ratio of IC50 for human PC-3 cells to MIC for Candida albicans CPCC400616
# Assay type: toxicity
quantity-name: selectivity ratio
Please reply with the value in numeric form only.

[Q] Report selectivity ratio, nothing else, for this compound: Fc1ccc([Se]C(Cn2ccnc2)c2ccc(F)cc2F)cc1 (stereo unspecified)
[A] 38

----------
# System: Candida albicans
# protocol: Antifungal activity against fluconazole-resistant Candida albicans 904 assessed as inhibition of microbial growth after 24 hrs by broth microdilution method
# Assay type: functional
The label Criterion met is reserved for MIC strictly under 8 µg/mL; Criterion not met covers values equal to or above it.

Solved cases below.
{"compound": "Cc1ccc(C[Se]C(Cn2cncn2)c2ccc(F)cc2F)cc1 (centres undefined)", "test-system": "Candida albicans", "assigned-category": "Criterion not met"}
{"compound": "Cc1ccc([Se]C(Cn2ccnc2)c2ccc(F)cc2F)cc1 (centres undefined)", "test-system": "Candida albicans", "assigned-category": "Criterion met"}
{"compound": "CCc1ccccc1[Se]C(Cn1ccnc1)c1ccc(F)cc1F (centres undefined)", "test-system": "Candida albicans", "assigned-category": "Criterion met"}
{"compound": "Cc1cccc(C)c1[Se]C(Cn1ccnc1)c1ccc(F)cc1F (centres undefined)", "test-system": "Candida albicans", "assigned-category": "Criterion met"}

[Q] Does the reported MIC of the following compound sit strictly below 8 µg/mL? Clc1ccc(C(Cn2cncn2)[Se]Cc2ccccc2Cl)c(Cl)c1 (centres undefined)
[A] Criterion not met

[Q] Does COc1ccc(C[Se]C(Cn2cncn2)c2ccc(F)cc2F)cc1 (centres undefined) have MIC strictly under 8 µg/mL?
[A] Criterion not met

[Q] MIC strictly < 8 µg/mL for this compound? Fc1ccc(C(Cn2cncn2)[Se]Cc2ccccc2Cl)c(F)c1 (centres undefined)
[A] Criterion met

[Q] Lab note: MIC threshold 8 µg/mL. Does this compound come in strictly under it? Clc1ccc(C(Cn2cncn2)[Se]Cc2ccccc2)c(Cl)c1 (centres undefined)
[A] Criterion not met

[Q] Consider the compound Cc1ccccc1[Se]C(Cn1ccnc1)c1ccc(Cl)cc1Cl (centres undefined) . Is its MIC strictly less than 8 µg/mL?
[A] Criterion met

[Q] Here's an entry: Cc1cccc([Se]C(Cn2ccnc2)c2ccc(F)cc2F)c1 (centres undefined) . Is its MIC below 8 µg/mL?
[A] Criterion met

[Q] Please indicate whether the reported MIC of Fc1ccc(C(Cn2cncn2)[Se]Cc2ccccc2)c(F)c1 (centres undefined) is strictly below 8 µg/mL.
[A] Criterion not met

[Q] Quick check: MIC of Fc1ccc(C(Cn2cncn2)[Se]Cc2ccc(Cl)cc2Cl)c(F)c1 (centres undefined) under 8 µg/mL?
[A] Criterion not met

[Q] Given the entry Cc1ccc(C)c([Se]C(Cn2ccnc2)c2ccc(Cl)cc2Cl)c1 (centres undefined) , would its reported MIC be below 8 µg/mL?
[A] Criterion met

[Q] Given the entry Cc1cc(C)cc([Se]C(Cn2ccnc2)c2ccc(Cl)cc2Cl)c1 (centres undefined) , would its reported MIC be below 8 µg/mL?
[A] Criterion not met

[Q] Please state whether MIC is below 8 µg/mL for Cc1cccc([Se]C(Cn2ccnc2)c2ccc(Cl)cc2Cl)c1 (centres undefined)
[A] Criterion met

[Q] Decide: MIC of Cc1ccc(C[Se]C(Cn2cncn2)c2ccc(Cl)cc2Cl)cc1 (centres undefined) strictly below 8 µg/mL?
[A] Criterion not met

[Q] Identify whether the compound Cc1ccc([Se]C(Cn2ccnc2)c2ccc(Cl)cc2Cl)cc1 (centres undefined) records MIC below 8 µg/mL.
[A] Criterion not met

[Q] Please check: MIC for Fc1ccc([Se]C(Cn2ccnc2)c2ccc(F)cc2F)cc1 (centres undefined) , strictly under 8 µg/mL or not?
[A] Criterion met
